molecular target: Kv7.1 (Homo sapiens); construct: expressed in transfected cells; host or cells: HEK293; assay: Whole-cell patch clamp of Kv7.1 currents (voltage steps) in transfected HEK293 cells; format: cell-based; settings: HEK293, non-linear Hill fit, n = 6 each point; read-out: IC50, inhibition of Kv7.1 at the tail currents
observable: pIC50
The scale used: pIC50 is minus the common logarithm of the concentration in molar units.

Note to self: pIC50 recorded for O=c1c(-c2ccc(O)cc2)coc2c([C@@H]3O[C@H](CO)[C@@H](O)[C@H](O)[C@H]3O)c(O)ccc12 [Puerarin, 8-c-glucoside of daidzein] was 4.40

* * *

Target: IKs channels (KCNQ and KCNE) (Homo sapiens, UniProt P51787)
Construct: expressed in transfected cells; host or cells: HEK293
Assay: Whole-cell patch clamp of IKs currents (Kv7.1 + KCNE1, voltage steps) in transfected HEK293 cells
Assay type: cell-based
Settings: HEK293, non-linear Hill fit, n = 6 each point; read-out: IC50, inhibition of IKs at the tail currents
Description: The Tyrode’s solution contained (mM): 126 NaCl, 5.4 KCl, 1.8 CaCl2, 1 MgCl2, 0.33 NaH2PO4, 10 HEPES and 10 glucose, pH 7.4 (adjusted with NaOH). The Ca^2+-free Tyrode’s solution was prepared by removing CaCl2 from the Tyrode’s solution. […] Cell suspensions were transferred into a chamber on the stage of a Nikon Eclipse Ti inverted microscope (Tokyo, Japan). […] The IK1 was calculated as the difference between the peak inward current and the holding current level. […]
observable: pIC50
The scale used: pIC50 is minus the common logarithm of the concentration in molar units.

Note to self: pIC50 recorded for O=c1c(-c2ccc(O)cc2)coc2c([C@@H]3O[C@H](CO)[C@@H](O)[C@H](O)[C@H]3O)c(O)ccc12 [Puerarin, 8-c-glucoside of daidzein] was 4.22

* * *

target: IKs channels (KCNQ and KCNE) (Homo sapiens, UniProt P51787); assay: Whole-cell patch clamp of IKs currents (Kv7.1 + KCNE1, voltage steps) in transfected HEK293 cells; settings: at the peak currents, non-linear Hill fit; read-out: EC50, enhancement of IKs currents
observable: EC50 (µM)
# number only, unit µM dropped from output

Note to self: EC50 recorded for O=C(O)[C@H]1O[C@@H](Oc2cc3oc(-c4ccccc4)cc(=O)c3c(O)c2O)[C@H](O)[C@@H](O)[C@@H]1O [Baicalin] was 138

* * *

Biological target: Kir2.1 (Homo sapiens, UniProt P63252)
Sequence (P63252 1-427): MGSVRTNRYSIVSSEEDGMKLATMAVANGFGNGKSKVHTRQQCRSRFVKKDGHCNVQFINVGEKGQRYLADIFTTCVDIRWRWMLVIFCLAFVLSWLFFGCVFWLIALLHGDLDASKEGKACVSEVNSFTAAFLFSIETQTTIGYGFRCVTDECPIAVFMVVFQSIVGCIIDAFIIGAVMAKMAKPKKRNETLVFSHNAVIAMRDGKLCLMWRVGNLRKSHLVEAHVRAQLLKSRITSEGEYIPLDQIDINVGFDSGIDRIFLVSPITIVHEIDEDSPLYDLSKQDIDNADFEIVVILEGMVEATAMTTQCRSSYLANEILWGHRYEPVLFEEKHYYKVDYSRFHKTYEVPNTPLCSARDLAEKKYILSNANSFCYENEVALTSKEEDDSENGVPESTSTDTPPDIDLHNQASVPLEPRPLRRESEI
Test: Whole-cell patch clamp of Kir2.1 currents (ramp voltage protocol) in transfected HEK293 cells
Details: HEK293, non-linear Hill fit, n = 5 each point; read-out: IC50, inhibition of Kir2.1 currents
observable: pIC50
The scale used: pIC50 is minus the common logarithm of the concentration in molar units.

Note to self: pIC50 recorded for O=c1c(-c2ccc(O)cc2)coc2c([C@@H]3O[C@H](CO)[C@@H](O)[C@H](O)[C@H]3O)c(O)ccc12 [Puerarin, 8-c-glucoside of daidzein] was 2.90

Reference for the values: paper PMC5071873
